Target: adrenergic α1 receptor
Test: adrenergic α1 receptor binding test ([3H] Prazosin Binding Test)
Parameters: species or system SD rats
Settings: 1 nM [3H] Prazosin, rat cortex, room temperature, 60 minutes
Description: The compounds of the present invention were subjected to each of serotonin S2 receptor binding test, dopamine D2 receptor binding test and adrenergic α1 receptor binding test. The following reagents were used in this test. These reagents and samples were each dissolved in 10% ethanol before use. […] Each IC50 value was calculated by the probit method and each Ki value was determined by the following formula: [formula] […]
Readout Label: Ki (nM)
# output: bare number, implied unit nM

Compound	System	Unit Spec	Test Value
CCCNc1cc(N2CCN(CC)CC2)cc(-c2ccccc2)c1OC	adrenergic α1 receptor	nM	334
CCN1CCN(c2cc(-c3ccccc3)c(OC)c(N(C)S(=O)(=O)CC)c2)CC1	adrenergic α1 receptor	nM	68.1
CC[C@H](F)c1cc(N2CCN(CCO)CC2)cc(-c2ccc(F)cc2C)c1Cl	adrenergic α1 receptor	nM	1040
CCN1CCN(c2cc(-c3ccccc3)c(OC)c([S+]([O-])CC)c2)CC1 (stereo not drawn)	adrenergic α1 receptor	nM	620

# next compound below
Tested system adrenergic α1 receptor; Ki recorded for CCCCS(=O)(=O)Nc1cc(N2CCN(C)CC2)cc(-c2ccccc2Cl)c1Cl was 25.3

====

target: adrenergic α1 receptor; experiment: adrenergic α1 receptor binding test ([3H] Prazosin Binding Test); design: species or system SD rats; details: 1 nM [3H] Prazosin, rat cortex, room temperature, 60 minutes
Readout Label: Ki (nM)
The answer is to be given in nM; state only the numeric part.

Use these answered entries as a reference point.
Compound	Ki / nM
CCN1CCN(c2cc(-c3ccccc3)c(OC)c(-c3ccccc3)c2)CC1 [Example 56]	503
CCN1CCN(c2cc(CCl)c(OC)c(-c3ccccc3)c2)CC1 [Example 45]	183
CCC(F)c1cc(N2CCN(CCO)CC2)cc(-c2ccccc2C#N)c1Cl (single isomer, unassigned) [Example 13]	404
CCCS(=O)(=O)Nc1cc(N2CCN(CC)CC2)cc(-c2ccccc2)c1Cl [Example 184]	4.52

Moving on to the next compound.
Form field Ki, entry CCCS(=O)(=O)c1cc(N2CCN(C)CC2)cc(-c2ccc(F)cc2)c1OC [Example 193] : 585

====

biological target: dopamine D2 receptor (Rattus norvegicus, UniProt P61169); construct: the receptor fraction prepared from the corpus striatum was molten and suspended; from tissue; host or cells: corpus striatum of SD rats (membrane fraction); assay: dopamine D2 receptor binding test ([3H] Spiperone Binding Test); design: species or system SD rats; conditions: Ki value, dopamine D2 receptor, 1 nM [3H] Spiperone, rat corpus striatum, room temperature, 60 minutes
Sequence (P61169 whole entry): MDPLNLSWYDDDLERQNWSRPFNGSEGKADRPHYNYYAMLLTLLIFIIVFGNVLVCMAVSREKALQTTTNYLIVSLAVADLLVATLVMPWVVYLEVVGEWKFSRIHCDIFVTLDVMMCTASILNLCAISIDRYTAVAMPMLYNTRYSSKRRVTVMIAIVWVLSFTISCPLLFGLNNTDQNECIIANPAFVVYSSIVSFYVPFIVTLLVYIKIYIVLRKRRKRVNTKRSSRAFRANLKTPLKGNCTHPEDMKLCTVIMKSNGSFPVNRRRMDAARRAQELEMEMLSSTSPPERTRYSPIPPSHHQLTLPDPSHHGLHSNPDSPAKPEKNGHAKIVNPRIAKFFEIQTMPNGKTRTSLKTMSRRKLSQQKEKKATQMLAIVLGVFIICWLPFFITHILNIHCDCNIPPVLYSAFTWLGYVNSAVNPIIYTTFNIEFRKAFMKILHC
Readout Label: pKi
Expect pKi as a plain number equal to -log10 of the molar concentration.

Compound	System	pKi
CCc1cc(N2CCN(CC)CC2)cc(-c2ccccc2)c1OC	dopamine D2 receptor (Rattus norvegicus, UniProt P61169)	7.38

Log: dopamine D2 receptor (Rattus norvegicus, UniProt P61169), compound CCC(F)c1cc(N2CCN(C)CC2)cc(-c2ccccc2)c1Cl (stereo not shown) , pKi = 8.97

The measured pKi that CCC(F)c1cc(-c2ccccc2)cc(N2CCN(CC)CC2)c1 (stereo not shown) showed for dopamine D2 receptor (Rattus norvegicus, UniProt P61169) is 8.73

pKi of CCS(=O)(=O)c1cc(N2CCNCC2)cc(-c2ccc(F)cc2)c1OC , assay on dopamine D2 receptor (Rattus norvegicus, UniProt P61169), is 7.04

The reported numbers originate from patent US6281214A.
